B1: CDC25B (parent)
chain: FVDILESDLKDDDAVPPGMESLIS

Variants of: B1
Test: protein stability index of a GFP-peptide fusion (GPS, HEK-293T) (PSI 1-6); higher = more stable;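 note: lentivirally expressed fusions sorted by FACS into six bins by GFP to DsRed ratio, PSI derived from sequencing read proportions per bin multiplied by bin number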
Settings: c terminus: a fixed tail appended
protein stability index for assorted variants
Outcome measure: protein stability index

Mutation descriptor	Experimental result
D8K	2.48
I4A	4.18
D12C	2.5
E6V	2.19
K10S	2.52
S24R	2.96
D11S	2.94
S7T	2.85
A14G	2.53
S7P	2.83
L5G	3.73
M19P	3.54
E20D	2.6
S7D	3.67
I4C	3.91
L5S	4.58
M19L	3.08
D11Y	2.71
L22A	3.37
L9G	3.05
S24D	3.45
I23F	2.48

All figures here come from the supplement of paper PMC10567573.
